experimental-target: pWT PDZ2 L391F (Homo sapiens, UniProt Q12959, C378A/I342W/L391F)
Construct: constituting SAP97 residues 311–407 and the mutations I342W and C372A; His-tagged lipoyl protein domain (N, cleaved yes); made in house
assay-text: Stopped-flow binding kinetics, peptide with pWT PDZ2 L391F
measurement-context: Kd = koff/kon, pH 7.5, 10 °C, ± propagated standard error
Ends that are not written are not given here.
Listed here are substances together with their documented pKd.
Expect pKd as a plain number equal to -log10 of the molar concentration.

Consider the following illustrative entries.
substance: Ac-PGKETQL [PGKETQL]
pKd: 6.60
--
substance: Ac-YRRESAI [YRRESAI]
pKd: 6.10
--
substance: Ac-VSKETPL [VSKETPL]
pKd: 6.10
--
substance: Ac-EKKHTLL [EKKHTLL]
pKd: 6.19

Q) Name the value of pKd reported for Ac-NSKETVV [NSKETVV] when tested on pWT PDZ2 L391F (Homo sapiens, UniProt Q12959, C378A/I342W/L391F).
A) 6.82

Q) Param request: pKd | system pWT PDZ2 L391F (Homo sapiens, UniProt Q12959, C378A/I342W/L391F) | item Ac-TSRETDL [TSRETDL]
A) 6.68

Q) Please report the measured pKd for Ac-SARSTDV [SARSTDV] tested on pWT PDZ2 L391F (Homo sapiens, UniProt Q12959, C378A/I342W/L391F).
A) 6.66
